Assay: Gelation experiments: inversion test for self-supporting hydrogels
Format: physicochemical
Details: DPA solution in water mixed 1:1 with DMEM, no calcium added
Experimental: Inversion tests were performed to determine qualitatively under which conditions the various DPAs formed self-supporting hydrogels. The various types of DPAs were tested by dissolving them in ultrapure water (>18 MΩ resistivity) at double the desired final concentration followed by mixing in a 1:1 ratio with different liquid mediums. Gelation was deemed to have occurred if the gel supported its own weight upon inverting the vial (FIG. 3A and FIG. 3B). […]
Where a SMILES comes first, the peptide text is derived from it. The star is where a group is joined. Palmitoyl = CCCCCCCCCCCCCCCC(=O)*
metric: Gelation (self-supporting gel on inversion), DMEM

molecule: CCCCCCCCCCCCCCCC(=O)NC(C(=O)NCC(=O)N[C@@H](Cc1ccccc1)C(=O)NCC(=O)N[C@@H](Cc1ccccc1)C(=O)NCC(=O)N[C@@H](Cc1ccccc1)C(=O)NCC(=O)NCC(=O)N[C@@H](CCC(N)=O)C(=O)N[C@@H](CO)C(=O)O)C(=O)NCC(=O)N[C@@H](Cc1ccccc1)C(=O)NCC(=O)N[C@@H](Cc1ccccc1)C(=O)NCC(=O)N[C@@H](Cc1ccccc1)C(=O)NCC(=O)NCC(=O)N[C@@H](CCC(N)=O)C(=O)N[C@@H](CO)C(=O)O
measured.value: Yes,
//
molecule: CCCCCCCCCCCCCCCC(=O)NC(C(=O)NCC(=O)N[C@@H](Cc1ccccc1)C(=O)NCC(=O)N[C@@H](Cc1ccccc1)C(=O)NCC(=O)N[C@@H](Cc1ccccc1)C(=O)NCC(=O)N[C@@H](CCC(=O)O)C(=O)NCC(=O)N[C@@H](CCC(=O)O)C(=O)O)C(=O)NCC(=O)N[C@@H](Cc1ccccc1)C(=O)NCC(=O)N[C@@H](Cc1ccccc1)C(=O)NCC(=O)N[C@@H](Cc1ccccc1)C(=O)NCC(=O)N[C@@H](CCC(=O)O)C(=O)NCC(=O)N[C@@H](CCC(=O)O)C(=O)O
measured.value: No
//
molecule: CCCCCCCCCCCCCCCC(=O)NC(C(=O)NCC(=O)N[C@H](C(=O)N[C@@H](C)C(=O)N[C@H](C(=O)N[C@@H](C)C(=O)N[C@H](C(=O)N[C@@H](C)C(=O)N[C@@H](CCC(=O)O)C(=O)NCC(=O)N[C@@H](CCC(=O)O)C(=O)O)C(C)C)C(C)C)C(C)C)C(=O)NCC(=O)N[C@H](C(=O)N[C@@H](C)C(=O)N[C@H](C(=O)N[C@@H](C)C(=O)N[C@H](C(=O)N[C@@H](C)C(=O)N[C@@H](CCC(=O)O)C(=O)NCC(=O)N[C@@H](CCC(=O)O)C(=O)O)C(C)C)C(C)C)C(C)C
measured.value: No
//
molecule: CCCCCCCCCCCCCCCC(=O)NCC(=O)N[C@@H](Cc1ccccc1)C(=O)NCC(=O)N[C@@H](Cc1ccccc1)C(=O)NCC(=O)N[C@@H](Cc1ccccc1)C(=O)NCC(=O)N[C@@H](CCC(N)=O)C(=O)N[C@@H](CCC(N)=O)C(=O)N[C@@H](CO)C(=O)O [reference compound] (Palmitoyl-GFGFGFGQQS-OH)
measured.value: No

Consider the record given below.
[ask] Given CCCCCCCCCCCCCCCC(=O)NC(C(=O)NCC(=O)N[C@@H](Cc1ccccc1)C(=O)NCC(=O)N[C@@H](Cc1ccccc1)C(=O)NCC(=O)N[C@@H](Cc1ccccc1)C(=O)NCC(=O)N[C@@H](CCC(N)=O)C(=O)NCC(=O)N[C@@H](CO)C(=O)O)C(=O)NCC(=O)N[C@@H](Cc1ccccc1)C(=O)NCC(=O)N[C@@H](Cc1ccccc1)C(=O)NCC(=O)N[C@@H](Cc1ccccc1)C(=O)NCC(=O)N[C@@H](CCC(N)=O)C(=O)NCC(=O)N[C@@H](CO)C(=O)O , state its recorded Gelation (self-supporting gel on inversion), DMEM.
[reply] Yes,
